# TARGET_SYSTEM: UniProt P49841
# MEASUREMENT_DESCRIPTION: Assay for GSK-3β inhibiting activity (32P-ATP, phospho-CREB peptide substrate, filter paper, CPM)
# Format: biochemical
# TEST_PARAMETERS: GSK-3β inhibiting activity; 100 nM GSK-3β protein, 100 μM phospho-CREB peptide, 100 μM ATP, 30° C. for 1 hour; read-out: IC50
RECORDED_METRIC: pIC50
By convention, pIC50 is the negative base-10 log of a molar concentration.

Sure, the documented pIC50 for Cc1ccc(S(=O)(=O)Nc2ccc(CCNC(=O)c3ccc(O)c4[nH]c(-c5ccc(F)cc5F)nc34)cc2)cc1 [Compound 141] is 7.37

Kindly note the recorded pIC50 for O=C(Nc1ccc(CCNS(=O)(=O)c2cccs2)cc1)c1ccc(O)c2[nH]c(-c3ccccc3)nc12 [Compound 12] , which is 6.70

The value of pIC50 measured for the compound O=C(NCCc1ccc(O)cc1)c1ccc(O)c2[nH]c(-c3ccc(F)cc3Cl)nc12 [Compound 150] turned out to be 7.22

The reported value for O=C(NCCc1ccc(N2C(=O)c3ccccc3C2=O)cc1)c1ccc(O)c2[nH]c(-c3ccc(Cl)cc3)nc12 [Compound 79] in terms of pIC50 is 6.92

Short answer for CCS(=O)(=O)NCCc1ccc(NC(=O)c2ccc(O)c3[nH]c(-c4ccc(F)cc4)nc23)cc1 [Compound 35] : pIC50 was 8.15

Value of measured pIC50 for the entry CCS(=O)(=O)NCCc1ccc(NC(=O)c2ccc(O)c3[nH]c(-c4ccccc4)nc23)cc1 [Compound 13] : 6.44

* * *

# TARGET_SYSTEM: GSK-3β (Homo sapiens, UniProt P49841)
# Sequence (P49841 whole entry): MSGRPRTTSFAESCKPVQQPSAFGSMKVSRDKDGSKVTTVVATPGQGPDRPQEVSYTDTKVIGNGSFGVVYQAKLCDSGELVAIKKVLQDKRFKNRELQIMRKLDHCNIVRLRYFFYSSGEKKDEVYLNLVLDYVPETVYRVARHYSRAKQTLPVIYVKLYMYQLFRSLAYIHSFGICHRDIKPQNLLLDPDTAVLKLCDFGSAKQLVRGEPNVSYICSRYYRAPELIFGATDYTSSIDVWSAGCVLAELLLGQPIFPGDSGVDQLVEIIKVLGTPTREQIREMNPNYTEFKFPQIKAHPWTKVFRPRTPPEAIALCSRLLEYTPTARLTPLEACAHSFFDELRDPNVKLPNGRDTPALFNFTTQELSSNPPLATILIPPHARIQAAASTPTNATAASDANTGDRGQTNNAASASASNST
# MEASUREMENT_DESCRIPTION: Assay for GSK-3β inhibiting activity (32P-ATP, phospho-CREB peptide substrate, filter paper, CPM)
# Type: biochemical
# TEST_PARAMETERS: GSK-3β inhibiting activity; 100 nM GSK-3β protein, 100 μM phospho-CREB peptide, 100 μM ATP, 30° C. for 1 hour; read-out: IC50
RECORDED_METRIC: IC50 (nM)
Unit nM implied. Number only.

COMPOUND | TARGET_SYSTEM | READOUT_VALUE
CS(=O)(=O)NCCc1ccc(NC(=O)c2ccc(O)c3[nH]c(-c4ccc(Cl)cc4)nc23)cc1 [Compound 17] | GSK-3β (Homo sapiens, UniProt P49841) | 240

The compound listed as CCCCNC(=O)c1ccc(O)c2[nH]c(-c3ccc(Cl)cc3Cl)nc12 [Compound 176] shows IC50 equal to 450

# IC50 (compound: Cc1nccn1CCCNC(=O)c1ccc(O)c2[nH]c(-c3ccc(F)cc3F)nc12 [Compound 195] ) is 30

* * *

# TARGET_SYSTEM: GSK-3β (Homo sapiens)
# MEASUREMENT_DESCRIPTION: Assay for GSK-3β inhibiting activity (32P-ATP, phospho-CREB peptide substrate, filter paper, CPM)
# Type: biochemical
# TEST_PARAMETERS: GSK-3β inhibiting activity; 100 nM GSK-3β protein, 100 μM phospho-CREB peptide, 100 μM ATP, 30° C. for 1 hour; read-out: IC50
Strictly below 50 nM in IC50: met. Otherwise: not met.

Examples with answers:
STRUCTURE | CLASSIFICATION
Cc1cn(CCCNC(=O)c2ccc(O)c3[nH]c(-c4ccc(Cl)cc4)nc23)cn1 | not met
CCS(=O)(=O)Nc1ccc(CCNC(=O)c2ccc(O)c3[nH]c(-c4ccc(F)cc4F)nc23)cc1 | met
Cc1ccc(S(=O)(=O)NCCc2ccc(NC(=O)c3ccc(O)c4[nH]c(-c5ccc(F)c(Cl)c5)nc34)cc2)cc1 | not met
O=C(Nc1ccccc1)c1ccc(O)c2[nH]c(-c3ccc(Cl)cc3)nc12 | not met
O=C(NCCc1ccc(O)cc1)c1ccc(O)c2[nH]c(-c3ccc(Cl)cc3Cl)nc12 | not met

A record lists O=C(NCCCn1ccnc1)c1ccc(O)c2[nH]c(-c3ccc(F)cc3Cl)nc12 . Is its IC50 below 50 nM?
met

is_below(IC50, 50 nM) for NC(=O)c1ccc(O)c2[nH]c(-c3ccccc3)nc12 ?
not met

Decide: IC50 of O=C(NCCCn1ccnc1)c1ccc(O)c2[nH]c(-c3ccc(F)cc3)nc12 strictly below 50 nM?
not met

* * *

# TARGET_SYSTEM: GSK-3β (Homo sapiens, UniProt P49841)
# MEASUREMENT_DESCRIPTION: Assay for GSK-3β inhibiting activity (32P-ATP, phospho-CREB peptide substrate, filter paper, CPM)
# Assay type: biochemical
# TEST_PARAMETERS: IC50 (μM)
RECORDED_METRIC: IC50 (µM)
Form entry: value (µM) — number only.

Data point: CCS(=O)(=O)Nc1ccc(CCNC(=O)c2ccc(O)c3nc(-c4ccc(F)cc4Cl)[nH]c23)cc1 ; IC50 = 0.002

Given item CS(=O)(=O)NCCc1ccc(NC(=O)c2ccc(O)c3[nH]c(-c4ccc(Cl)cc4Cl)nc23)cc1 , the value recorded as its IC50 is 0.08

Measured IC50, CCS(=O)(=O)Nc1ccc(CCNC(=O)c2ccc(O)c3nc(-c4ccc(Cl)cc4Cl)[nH]c23)cc1 : 0.03

The compound identified as O=C(CN1CCOCC1)Nc1ccc(CCNC(=O)c2ccc(O)c3nc(-c4ccc(F)cc4)[nH]c23)cc1 registered its IC50 at 0.04

* * *

# TARGET_SYSTEM: GSK-3β (Homo sapiens, UniProt P49841)
# MEASUREMENT_DESCRIPTION: Assay for GSK-3β inhibiting activity (32P-ATP, phospho-CREB peptide substrate, filter paper, CPM)
# Assay type: biochemical
# TEST_PARAMETERS: GSK-3β inhibiting activity; 100 nM GSK-3β protein, 100 μM phospho-CREB peptide, 100 μM ATP, 30° C. for 1 hour; read-out: IC50
RECORDED_METRIC: log10 IC50 (log10 of the value in nM)
Please keep in mind that the values are log10 of IC50 expressed in nM.

Take a look at these entries with their results.
COMPOUND | TARGET_SYSTEM | READOUT_VALUE
Cc1nccn1CCCNC(=O)c1ccc(O)c2[nH]c(-c3ccc(F)cc3Cl)nc12 [Compound 201] | GSK-3β (Homo sapiens, UniProt P49841) | 1.85
Cc1nccn1CCCNC(=O)c1ccc(O)c2[nH]c(-c3ccc(Cl)cc3Cl)nc12 [Compound 183] | GSK-3β (Homo sapiens, UniProt P49841) | 1.78
CS(=O)(=O)Nc1ccc(CCNC(=O)c2ccc(O)c3[nH]c(-c4ccccc4)nc23)cc1 [Compound 64] | GSK-3β (Homo sapiens, UniProt P49841) | 1.48

So for O=C(NCCc1ccc(OCCN2CCOCC2)cc1)c1ccc(O)c2[nH]c(-c3ccc(F)cc3)nc12 [Compound 136] , the logged log10 IC50 turned out to be 2.38

CCN(CC)CC(=O)Nc1ccc(CCNC(=O)c2ccc(O)c3[nH]c(-c4ccc(Cl)cc4)nc23)cc1 [Compound 89] yielded log10 IC50 of 2.51

Entry O=C(NCCNc1ccc([N+](=O)[O-])cn1)c1ccc(O)c2[nH]c(-c3ccc(Cl)cc3Cl)nc12 [Compound 110] , log10 IC50 reported as 2.45

For reference, reported log10 IC50 for Nc1ccc(CNC(=O)c2ccc(O)c3[nH]c(-c4ccccc4)nc23)cc1 [Compound 50] stands at 2.78

Recorded result, O=C(NCCCn1ccnc1)c1ccc(O)c2[nH]c(-c3ccc(Cl)cc3)nc12 [Compound 170] , log10 IC50: 2.28

The recorded log10 IC50 for entry Cc1cn(CCCNC(=O)c2ccc(O)c3[nH]c(-c4ccc(F)c(Cl)c4)nc23)cn1 [Compound 202] equals 0.95

Sample CS(=O)(=O)Nc1ccc(CCNC(=O)c2ccc(O)c3[nH]c(-c4ccc(F)cc4)nc23)cc1 [Compound 114] ; log10 IC50 observed: 0.00

# log10 IC50 (compound: O=C(NCCc1ccccc1)c1ccc(O)c2nc(-c3ccccc3)[nH]c12 [Compound 57] ) is 2.76

The value of log10 IC50 measured for the compound Cc1ccc(S(=O)(=O)Nc2ccc(NCCNC(=O)c3ccc(O)c4[nH]c(-c5ccc(F)cc5Cl)nc34)nc2)cc1 [Compound 153] turned out to be 1.70

* * *

Entries and their pIC50 values follow.
# TARGET_SYSTEM: GSK-3β (Homo sapiens, UniProt P49841)
# MEASUREMENT_DESCRIPTION: Assay for GSK-3β inhibiting activity (32P-ATP, phospho-CREB peptide substrate, filter paper, CPM)
# Format: biochemical
# TEST_PARAMETERS: GSK-3β inhibiting activity; 100 nM GSK-3β protein, 100 μM phospho-CREB peptide, 100 μM ATP, 30° C. for 1 hour; read-out: IC50
As a rule, pIC50 stands for the negative log10 of the concentration, concentration in M.

STRUCTURE | pIC50
CCN1CCN(CC(=O)Nc2ccc(CCNC(=O)c3ccc(O)c4[nH]c(-c5ccc(Cl)cc5)nc34)cc2)CC1 | 6.64
O=C(NCCc1ccc(O)cc1)c1ccc(O)c2[nH]c(-c3ccccc3)nc12 | 6.17
O=C(NCCCn1cnc(Cl)c1Cl)c1ccc(O)c2[nH]c(-c3ccc(F)cc3)nc12 | 8.22
Cc1ccc(S(=O)(=O)Nc2ccc(CCNC(=O)c3ccc(O)c4[nH]c(-c5ccc(Cl)cc5)nc34)cc2)cc1 | 7.30

Okay, now this compound:
Value of pIC50 reported for the compound O=C(CN1CCOCC1)Nc1ccc(CCNC(=O)c2ccc(O)c3[nH]c(-c4ccc(Cl)cc4)nc23)cc1 is 7.10
